Hello, the source for this data is paper PMC8151276, in case you need it.

- assayed-system: AVPR1A (Homo sapiens)
- Construct: purchased Promega (in-house HiBiT-GPCR construct library, NanoBRET)
- Sequence (P37288 whole entry): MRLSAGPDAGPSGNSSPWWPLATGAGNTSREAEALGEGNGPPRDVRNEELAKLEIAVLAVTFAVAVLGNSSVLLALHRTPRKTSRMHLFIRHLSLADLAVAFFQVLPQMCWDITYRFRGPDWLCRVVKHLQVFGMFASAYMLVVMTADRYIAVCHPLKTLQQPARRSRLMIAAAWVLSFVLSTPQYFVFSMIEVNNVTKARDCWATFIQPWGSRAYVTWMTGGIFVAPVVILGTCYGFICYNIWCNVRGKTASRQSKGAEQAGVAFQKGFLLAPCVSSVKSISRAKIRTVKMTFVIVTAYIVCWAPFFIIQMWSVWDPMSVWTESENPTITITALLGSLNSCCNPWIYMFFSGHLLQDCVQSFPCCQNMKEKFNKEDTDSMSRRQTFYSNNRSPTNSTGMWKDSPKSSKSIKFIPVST
- test: NanoBRET screen HiBiT-AVPR1A in HEK293
- Format: binding
- stated-conditions: AVPR1A; tracer 1μM
We use 1 as the dividing line for NanoBRET Fold Response: on or above the line is TRUE, below is FALSE.

Cc1cc2c(s1)Nc1ccccc1N=C2N1CCN(CCCNC(=O)CCOCCOCCOCCOCCNC(=O)CCc2ccc3n2[B-](F)(F)[N+]2=C(c4ccc[nH]4)C=CC2=C3)CC1 = TRUE

IN: Hi team, for "N#CN=C(NCCCOc1cccc(CN2CCCCC2)c1)NCCNC(=O)CCOCCOCCOCCOCCNC(=O)CCc1ccc2n1[B-](F)(F)[N+]1=C(c3ccc[nH]3)C=CC1=C2" , is the recorded NanoBRET Fold Response at or above 1?
OUT: FALSE

IN: Repeat for the following molecule: O=C(CCc1ccc2n1[B-](F)(F)[N+]1=C(c3ccc[nH]3)C=CC1=C2)NCc1ccc(C(=O)NCCOCCC(=O)N[C@@H]2CC[C@@]3(O)[C@H]4Cc5ccc(O)c6c5[C@@]3(CCN4CC3CC3)[C@H]2O6)cc1 [Naltrexone-3-NB590]
OUT: FALSE

IN: Try this molecule too: "CC(C)N(CC[C@H](c1ccccc1)c1cc(CCNC(=O)CCOCCOCCOCCOCCNC(=O)CCc2ccc3n2[B-](F)(F)[N+]2=C(c4ccc[nH]4)C=CC2=C3)ccc1O)C(C)C"
OUT: TRUE

IN: Quick one: "CCCn1c(=O)c2[nH]c(-c3ccc(OCC(=O)NCCNC(=O)CCOCCNC(=O)c4ccc(CNC(=O)CCc5ccc6n5[B-](F)(F)[N+]5=C(c7ccc[nH]7)C=CC5=C6)cc4)cc3)nc2n(CCC)c1=O"
OUT: TRUE

IN: Next record, please: "CC(C)N(CC[C@H](c1ccccc1)c1cc(CCNC(=O)c2ccc(CNC(=O)CCc3ccc4n3[B-](F)(F)[N+]3=C(c5ccc[nH]5)C=CC3=C4)cc2)ccc1O)C(C)C"
OUT: TRUE

IN: Now the molecule "O=C(CCOCCOCCOCCOCCNC(=O)CCc1ccc2n1[B-](F)(F)[N+]1=C(c3ccc[nH]3)C=CC1=C2)NCCCN1CCN(C2=Nc3ccccc3Oc3ccc(Cl)cc32)CC1"
OUT: FALSE

IN: Field entry: "COc1ccccc1N1CCN(CCCCN2C(=O)c3ccc(CNC(=O)CCOCCNC(=O)c4ccc(CNC(=O)CCc5ccc6n5[B-](F)(F)[N+]5=C(c7ccc[nH]7)C=CC5=C6)cc4)cc3C2=O)CC1"
OUT: FALSE

IN: Further, for "COc1ccccc1N1CCN(CCCCN2C(=O)c3ccc(CNC(=O)CCOCCOCCOCCOCCNC(=O)CCc4ccc5n4[B-](F)(F)[N+]4=C(c6ccc[nH]6)C=CC4=C5)cc3C2=O)CC1" ?
OUT: FALSE

IN: Now consider Cc1nc2n(c(=O)c1CCN1CCC(c3noc4cc(F)ccc34)CC1)CCCC2OC(=O)NCCOCCOCCOCCOCCNC(=O)CCc1ccc2n1[B-](F)(F)[N+]1=C(c3ccc[nH]3)C=CC1=C2 (centres unmarked) .
OUT: FALSE

----------
- assayed-system: ADRA2C (Homo sapiens, UniProt P18825)
- Construct: purchased Promega (in-house HiBiT-GPCR construct library, NanoBRET)
- Sequence (P18825 whole entry): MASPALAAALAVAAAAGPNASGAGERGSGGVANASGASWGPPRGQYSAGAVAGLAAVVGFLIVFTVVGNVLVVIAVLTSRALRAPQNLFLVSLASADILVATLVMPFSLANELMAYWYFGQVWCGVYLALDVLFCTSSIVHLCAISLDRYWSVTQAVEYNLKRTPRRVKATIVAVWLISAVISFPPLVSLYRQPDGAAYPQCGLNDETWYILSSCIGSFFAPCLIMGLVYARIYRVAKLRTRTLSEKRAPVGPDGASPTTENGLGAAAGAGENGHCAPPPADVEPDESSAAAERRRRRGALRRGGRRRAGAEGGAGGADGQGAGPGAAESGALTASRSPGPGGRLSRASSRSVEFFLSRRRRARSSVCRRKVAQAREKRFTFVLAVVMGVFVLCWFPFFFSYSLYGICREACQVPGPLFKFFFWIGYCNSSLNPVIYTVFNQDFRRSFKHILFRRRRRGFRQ
- test: NanoBRET screen HiBiT-ADRA2C in HEK293
- Format: binding
- stated-conditions: ADRA2C; tracer 0.1μM
Item-by-item account of NanoBRET Fold Response
API doc: respond with a numeric literal and nothing else, no unit.

The cases that follow already have their NanoBRET Fold Response on record.
COc1ccccc1N1CCN(CCCCN2C(=O)c3ccc(CNC(=O)CCOCCOCCOCCOCCNC(=O)CCc4ccc5n4[B-](F)(F)[N+]4=C(c6ccc[nH]6)C=CC4=C5)cc3C2=O)CC1 = 1.22
CCCn1c(=O)c2[nH]c(-c3ccc(OCC(=O)NCCNC(=O)CCOCCNC(=O)c4ccc(CNC(=O)CCc5ccc6n5[B-](F)(F)[N+]5=C(c7ccc[nH]7)C=CC5=C6)cc4)cc3)nc2n(CCC)c1=O = 0.77
COc1ccccc1N1CCN(CCCCN2C(=O)c3ccc(CNC(=O)CCOCCNC(=O)c4ccc(CNC(=O)CCc5ccc6n5[B-](F)(F)[N+]5=C(c7ccc[nH]7)C=CC5=C6)cc4)cc3C2=O)CC1 = 1.56
O=C(CCOCCOCCOCCOCCNC(=O)CCc1ccc2n1[B-](F)(F)[N+]1=C(c3ccc[nH]3)C=CC1=C2)NCCCN1CCN(C2=Nc3ccccc3Oc3ccc(Cl)cc32)CC1 = 1.13

IN: Can you share its NanoBRET Fold Response? I mean this molecule: "CC(C)N(CC[C@H](c1ccccc1)c1cc(CCNC(=O)c2ccc(CNC(=O)CCc3ccc4n3[B-](F)(F)[N+]3=C(c5ccc[nH]5)C=CC3=C4)cc2)ccc1O)C(C)C"
OUT: 1.09

----------
Each entry below carries its reported NanoBRET Fold Response.
- assayed-system: TBXA2R (Homo sapiens, UniProt P21731)
- Construct: purchased Promega (in-house HiBiT-GPCR construct library, NanoBRET)
- Sequence (P21731 whole entry): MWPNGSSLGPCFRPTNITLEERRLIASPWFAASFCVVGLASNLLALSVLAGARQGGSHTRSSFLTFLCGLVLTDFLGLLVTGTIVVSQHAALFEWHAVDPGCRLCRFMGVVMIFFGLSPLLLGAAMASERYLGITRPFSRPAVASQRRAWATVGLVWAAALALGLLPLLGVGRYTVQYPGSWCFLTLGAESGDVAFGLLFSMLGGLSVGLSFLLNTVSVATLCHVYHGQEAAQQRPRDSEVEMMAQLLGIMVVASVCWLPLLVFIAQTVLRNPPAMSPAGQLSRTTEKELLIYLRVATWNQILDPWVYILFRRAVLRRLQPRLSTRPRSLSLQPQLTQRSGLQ
- test: NanoBRET screen HiBiT-TBXA2R in HEK293
- Assay type: binding
- stated-conditions: TBXA2R; tracer 0.1μM
Give the figure only, with no unit attached.

# example entries with known answers
CC(C)N(CC[C@H](c1ccccc1)c1cc(CCNC(=O)CCOCCOCCOCCOCCNC(=O)CCc2ccc3n2[B-](F)(F)[N+]2=C(c4ccc[nH]4)C=CC2=C3)ccc1O)C(C)C = 0.79
Cc1cc2c(s1)Nc1ccccc1N=C2N1CCN(CCCNC(=O)CCOCCOCCOCCOCCNC(=O)CCc2ccc3n2[B-](F)(F)[N+]2=C(c4ccc[nH]4)C=CC2=C3)CC1 = 0.95
O=C(CCc1ccc2n1[B-](F)(F)[N+]1=C(c3ccc[nH]3)C=CC1=C2)NCCOCCOCCNC(=O)OCCOCCN1CCN(C2=Nc3ccccc3Sc3ccccc32)CC1 = 1.01

IN: Item under review: "COc1ccccc1N1CCN(CCCCN2C(=O)c3ccc(CNC(=O)CCOCCNC(=O)c4ccc(CNC(=O)CCc5ccc6n5[B-](F)(F)[N+]5=C(c7ccc[nH]7)C=CC5=C6)cc4)cc3C2=O)CC1" . Reported NanoBRET Fold Response?
OUT: 1.08

IN: Also "CCCn1c(=O)c2[nH]c(-c3ccc(OCC(=O)NCCNC(=O)CCOCCNC(=O)c4ccc(CNC(=O)CCc5ccc6n5[B-](F)(F)[N+]5=C(c7ccc[nH]7)C=CC5=C6)cc4)cc3)nc2n(CCC)c1=O" ?
OUT: 1.04

IN: Check "CC(C)N(CC[C@H](c1ccccc1)c1cc(CCNC(=O)c2ccc(CNC(=O)CCc3ccc4n3[B-](F)(F)[N+]3=C(c5ccc[nH]5)C=CC3=C4)cc2)ccc1O)C(C)C" too.
OUT: 0.91

IN: Do the same for "N#CN=C(NCCCOc1cccc(CN2CCCCC2)c1)NCCNC(=O)CCOCCOCCOCCOCCNC(=O)CCc1ccc2n1[B-](F)(F)[N+]1=C(c3ccc[nH]3)C=CC1=C2" please
OUT: 0.98

IN: Another molecule: Cc1nc2n(c(=O)c1CCN1CCC(c3noc4cc(F)ccc34)CC1)CCCC2OC(=O)NCCOCCOCCOCCOCCNC(=O)CCc1ccc2n1[B-](F)(F)[N+]1=C(c3ccc[nH]3)C=CC1=C2 (centres unmarked)
OUT: 0.93

IN: Queued: O=C(CCc1ccc2n1[B-](F)(F)[N+]1=C(c3ccc[nH]3)C=CC1=C2)NCc1ccc(C(=O)NCCOCCC(=O)N[C@@H]2CC[C@@]3(O)[C@H]4Cc5ccc(O)c6c5[C@@]3(CCN4CC3CC3)[C@H]2O6)cc1 [Naltrexone-3-NB590]
OUT: 1.24

IN: Another molecule: "COc1ccccc1N1CCN(CCCCN2C(=O)c3ccc(CNC(=O)CCOCCOCCOCCOCCNC(=O)CCc4ccc5n4[B-](F)(F)[N+]4=C(c6ccc[nH]6)C=CC4=C5)cc3C2=O)CC1"
OUT: 1.07

IN: // same read-out, input: "O=C(CCOCCOCCOCCOCCNC(=O)CCc1ccc2n1[B-](F)(F)[N+]1=C(c3ccc[nH]3)C=CC1=C2)NCCCN1CCN(C2=Nc3ccccc3Oc3ccc(Cl)cc32)CC1"
OUT: 0.99

----------
- assayed-system: VIPR2 (Homo sapiens, UniProt P41587)
- Construct: purchased Promega (in-house HiBiT-GPCR construct library, NanoBRET)
- Sequence (P41587 24-438): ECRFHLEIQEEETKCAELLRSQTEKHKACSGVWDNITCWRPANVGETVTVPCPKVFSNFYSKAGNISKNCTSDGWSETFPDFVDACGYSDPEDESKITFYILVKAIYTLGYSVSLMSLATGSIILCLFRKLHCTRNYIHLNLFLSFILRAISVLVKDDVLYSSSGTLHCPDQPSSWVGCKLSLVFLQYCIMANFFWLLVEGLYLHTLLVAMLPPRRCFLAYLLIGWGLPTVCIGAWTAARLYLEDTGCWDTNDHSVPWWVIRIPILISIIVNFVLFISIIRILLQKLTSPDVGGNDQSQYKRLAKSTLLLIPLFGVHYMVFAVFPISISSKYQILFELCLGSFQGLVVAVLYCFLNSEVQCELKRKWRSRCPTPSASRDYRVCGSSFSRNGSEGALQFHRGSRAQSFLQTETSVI
- test: NanoBRET screen HiBiT-VIPR2 in HEK293
- Assay type: binding
- stated-conditions: VIPR2; tracer 1μM
Binary classification by NanoBRET Fold Response, with 1 as an inclusive lower bound for y; all other cases are n.

IN: Could you tell me if the measured NanoBRET Fold Response of "N#CN=C(NCCCOc1cccc(CN2CCCCC2)c1)NCCNC(=O)CCOCCOCCOCCOCCNC(=O)CCc1ccc2n1[B-](F)(F)[N+]1=C(c3ccc[nH]3)C=CC1=C2" reaches 1 or more?
OUT: y

IN: Query "COc1ccccc1N1CCN(CCCCN2C(=O)c3ccc(CNC(=O)CCOCCNC(=O)c4ccc(CNC(=O)CCc5ccc6n5[B-](F)(F)[N+]5=C(c7ccc[nH]7)C=CC5=C6)cc4)cc3C2=O)CC1" next
OUT: n

IN: Quick one: "O=C(CCOCCOCCOCCOCCNC(=O)CCc1ccc2n1[B-](F)(F)[N+]1=C(c3ccc[nH]3)C=CC1=C2)NCCCN1CCN(C2=Nc3ccccc3Oc3ccc(Cl)cc32)CC1"
OUT: n

IN: Try "COc1ccccc1N1CCN(CCCCN2C(=O)c3ccc(CNC(=O)CCOCCOCCOCCOCCNC(=O)CCc4ccc5n4[B-](F)(F)[N+]4=C(c6ccc[nH]6)C=CC4=C5)cc3C2=O)CC1" next.
OUT: y

IN: Quick one: "CC(C)N(CC[C@H](c1ccccc1)c1cc(CCNC(=O)CCOCCOCCOCCOCCNC(=O)CCc2ccc3n2[B-](F)(F)[N+]2=C(c4ccc[nH]4)C=CC2=C3)ccc1O)C(C)C"
OUT: y

IN: Next record, please: O=C(CCc1ccc2n1[B-](F)(F)[N+]1=C(c3ccc[nH]3)C=CC1=C2)NCc1ccc(C(=O)NCCOCCC(=O)N[C@@H]2CC[C@@]3(O)[C@H]4Cc5ccc(O)c6c5[C@@]3(CCN4CC3CC3)[C@H]2O6)cc1 [Naltrexone-3-NB590]
OUT: y
